# Test system: ConA-induced T-cell proliferation (spleen cells)
# experiment: ConA-induced T-cell proliferation ([3H]-thymidine uptake)
# Type: cell-based
# assayContext: Mus musculus, spleen cells stimulated with 5 µg/mL ConA
valueKind: pIC50
Kindly note that pIC50 refers to -log10 of the concentration in mol/L and answer with the value alone.

Hello, please tell me recorded pIC50 for this one: CC1=CC[C@H]2C(C)(C)CCC[C@]2(C)[C@H]1C[C@@]12O[C@@H]1[C@H](O)C(CO)=C[C@H]2O [Compound 3, craterellin A]
5.04

###

# experiment: Cytotoxicity assay (CCK-8) on spleen cells
# Format: cell-based
# assayContext: female, fresh spleen cells (splenic lymphocytes), BALB/c mouse spleen cells
valueKind: CC50 at 48 h

> print(dat)
                                   compound     valuekind  testvalue
1  CC1=CCC2C(C)(C)CCCC2(C)C1CC12OC1C(=O)C(Cc1c(O)cc(CC(C)O)oc1=O)=CC2O (centres unmarked)  CC50 at 48 h    > 40 µM

Now examine the next entry.
Hello, please tell me recorded CC50 at 48 h for this one: `CC1=CC[C@H]2C(C)(C)CCC[C@]2(C)[C@H]1C[C@@]12O[C@@H]1[C@H](O)C(CO)=C[C@H]2O`
> 40 µM
